Target: S. aureus ATP synthase (Staphylococcus aureus)
Experiment: ATP production by membrane vesicles, luciferase luminescence
Settings: […] NADH, 1 mM ADP, 10 mM potassium phosphate; 30 min preincubation, 60 min reaction
From the text: ATP production by membrane vesicles, luciferase luminescence on S. aureus ATP synthase
pIC50: −log10 of the molar value.
parameter: pIC50

>>> recorded_number("C[C@H]1CC[C@]2(NC1)O[C@H]1C[C@H]3[C@@H]4CC[C@H]5CC(NCCN)CC[C@]5(C)[C@H]4CC[C@]3(C)[C@H]1[C@@H]2C (mixture of isomers) [TM-02]")
6.29
>>> recorded_number("C[C@H]1CC[C@]2(NC1)O[C@H]1C[C@H]3[C@@H]4CC[C@H]5CC(NC[C@H](N)Cc6ccc(I)cc6)CC[C@]5(C)[C@H]4CC[C@]3(C)[C@H]1[C@@H]2C (mixture of isomers) [TM-184]")
6.15
>>> recorded_number("C[C@H]1CC[C@]2(NC1)O[C@H]1C[C@H]3[C@@H]4CC[C@H]5CC(NC[C@H](N)Cc6ccc(C(F)(F)F)cc6)CC[C@]5(C)[C@H]4CC[C@]3(C)[C@H]1[C@@H]2C (stereo partly shown) [TM-303]")
5.88
>>> recorded_number("C[C@H]1CC[C@]2(NC1)O[C@H]1C[C@H]3[C@@H]4CC[C@H]5CC(NC[C@H](N)Cc6c[nH]c7ccccc67)CC[C@]5(C)[C@H]4CC[C@]3(C)[C@H]1[C@@H]2C (stereo partly shown) [TM-247]")
5.97
